Reference source for all entries: PubChem BioAssay (EPA / NIEHS)

assay: APR_HepG2_CellCycleArrest_24hr: Apredica 24-hour HepG2 Assay for Cell Cycle Arrest (AID 2282905); conditions: imaging, actives raise or lower the signal;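 also: cell cycle arrest scored as ratio of 2N to 4N nuclear DNA content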
The source made the active and inactive calls. The calls were made as follows: active = hit-call score of the fitted dose curve at least 0.9, where 1 is the maximum; inactive = score below 0.9.
Please answer using one outcome listed in active, inactive

For this molecule, state the assay outcome: `Oc1ccc(O)cc1`
inactive

For this molecule, state the assay outcome: `NCCOCCOCCN`
active

For this molecule, state the assay outcome: CCC(C)N(C)C(=O)c1cc2ccccc2c(-c2ccccc2Cl)n1 (configuration not stated)
inactive

For this molecule, state the assay outcome: `O=[Si]=O`
inactive

For this molecule, state the assay outcome: Cc1c(C)c2c(c(C)c1O)CCC(C)(COc1ccc(CC3SC(=O)NC3=O)cc1)O2 (configuration not stated)
active

For this molecule, state the assay outcome: `O=C1O[C@H]([C@H](O)CO)C(O)=C1O`
inactive

For this molecule, state the assay outcome: `COc1ccc(C(=O)Nc2nc3ccccc3c(NCc3ccccc3)c2C#N)cc1`
inactive

----------
read-out: Tumor necrosis factor receptor 1 (TNFRSF1A), TNFRSF1A (gene 7132); assay: LTEA_HepaRG_TNFRSF1A: Life Technologies and Expression Analysis (LTEA) Assay for Tumor necrosis factor receptor 1 (TNFRSF1A) using HepaRG (AID 2283535); conditions: mRNA level, 48 h; actives raise or lower the signal
Calls of active or inactive are those of the source. Rule for the calls: active = hit-call score of the fitted dose curve at least 0.9, where 1 is the maximum; inactive = score below 0.9.
Please answer using one outcome listed in y = active, n = inactive

For this molecule, state the assay outcome: `CSc1ccc(Oc2ccc(S(N)(=O)=O)cc2CN(C)C)cc1C`
n

For this molecule, state the assay outcome: CCCCC(CC)COC(=O)CCCCCCCC(=O)OCC(CC)CCCC (stereo not drawn)
n

For this molecule, state the assay outcome: `CN(C)CCCN1c2ccccc2Sc2ccc(Cl)cc21`
n

For this molecule, state the assay outcome: `OCC(O)CO`
n

For this molecule, state the assay outcome: CCCCC(CC)CO (stereo not drawn)
n

For this molecule, state the assay outcome: `O=C(Oc1ccccc1)c1cccc(C(=O)Oc2ccccc2)c1`
n

For this molecule, state the assay outcome: `COc1ccc(C(=O)Nc2nc3ccccc3c(NCc3ccccc3)c2C#N)cc1`
n

For this molecule, state the assay outcome: `CC(N)=O`
y

For this molecule, state the assay outcome: `c1ccc2occc2c1`
n

For this molecule, state the assay outcome: `CN(C)C(=O)NC1(c2ccccc2)CCN(CCC[C@]2(c3ccc(Cl)c(Cl)c3)CCCN(C(=O)c3ccccc3)C2)CC1`
n

For this molecule, state the assay outcome: `CC(C)(C)c1ccccc1`
n

For this molecule, state the assay outcome: `CS(=O)(=O)c1ccc([C@@H](C[C@H]2CCC(=O)C2)C(=O)Nc2cnccn2)cc1Cl`
y

For this molecule, state the assay outcome: CC(=O)CC(c1ccccc1)c1c(O)c2ccccc2oc1=O (stereo not drawn)
n

----------
target: Paired box protein Pax-6 (Homo sapiens); assay: ATG_Pax6_CIS: Attagene CIS-FACTORIAL HepG2 Assay for human Paired Box 6 (PAX6) (AID 2282956); details: HepG2 CIS-FACTORIAL PAX6 reporter transcription, RNA readout; actives raise or lower the signal
Calls of active or inactive are those of the source. How the source made its calls: active means hit-call score of the fitted dose curve at least 0.9, where 1 is the maximum; inactive means score below 0.9.
Please answer using one outcome listed in active, inactive

For this compound, state the assay outcome: `O=C(O)CN(CC(=O)O)CC(=O)O`
inactive

For this compound, state the assay outcome: `CC(=O)O`
inactive

For this compound, state the assay outcome: CC(=O)OC1CC(C)OC(C)O1 (stereo not drawn)
inactive

For this compound, state the assay outcome: `CC(C)OC(=O)C(C)(C)Oc1ccc(C(=O)c2ccc(Cl)cc2)cc1`
active

For this compound, state the assay outcome: `O=C1NC(=O)C(c2ccccc2)(c2ccccc2)N1`
inactive

For this compound, state the assay outcome: `O=Cc1ccccc1C=O`
inactive

For this compound, state the assay outcome: `NC(=Nc1ccccc1)Nc1ccccc1`
active

For this compound, state the assay outcome: CCCCC(CC)COP(=O)(OCC(CC)CCCC)OCC(CC)CCCC (stereo not drawn)
inactive

For this compound, state the assay outcome: `N[C@@H](Cc1c[nH]c2ccccc12)C(=O)O`
inactive

For this compound, state the assay outcome: `O=C(O)c1cccnc1`
inactive

For this compound, state the assay outcome: `Cc1ccc(-c2cc(C(F)(F)F)nn2-c2ccc(S(N)(=O)=O)cc2)cc1`
inactive

For this compound, state the assay outcome: `O=NO`
inactive

For this compound, state the assay outcome: `C/C=C/C=C/C(=O)O`
inactive
